Target: UniProt:P21452
Sequence (P21452 1-398): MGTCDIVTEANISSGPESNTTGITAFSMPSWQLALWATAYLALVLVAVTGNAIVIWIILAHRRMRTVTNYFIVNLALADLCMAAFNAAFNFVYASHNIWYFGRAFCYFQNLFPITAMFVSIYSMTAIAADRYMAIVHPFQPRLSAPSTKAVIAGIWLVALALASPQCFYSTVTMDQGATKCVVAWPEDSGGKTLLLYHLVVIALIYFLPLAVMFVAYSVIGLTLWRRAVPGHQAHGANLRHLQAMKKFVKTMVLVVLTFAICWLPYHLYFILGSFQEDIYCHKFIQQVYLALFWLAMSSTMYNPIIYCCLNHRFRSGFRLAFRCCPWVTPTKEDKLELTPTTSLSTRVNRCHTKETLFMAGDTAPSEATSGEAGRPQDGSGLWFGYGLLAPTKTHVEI
pIC50: −log10 of the molar value.

# compound, pIC50
measured = [
    ("CC(=O)N(CCc1ccccc1)CC(Cc1c[nH]c2ccccc12)NC(=O)CN1CCC(N2CCCCC2)CC1 (stereo not drawn)", 5.68),
    ("CC(=O)N(Cc1ccccc1C)CC(Cc1c[nH]c2ccccc12)NC(=O)CN1CCN(c2ccccc2)CC1 (stereo not drawn)", 6.00),
    ("CC(=O)NC1(c2ccccc2)CCN(CC(=O)NC(Cc2c[nH]c3ccccc23)CN(C)C(=O)c2ccccc2)CC1 (stereo not drawn)", 5.02),
    ("COc1ccccc1CN(CC(Cc1c[nH]c2ccccc12)NC(=O)CN1CCN(C(C)=O)CC1)C(C)=O (stereo not drawn)", 5.21),
    ("COc1ccccc1CN(CC(NC(=O)CN1CCC(N2CCCCC2)CC1)c1ccccc1)C(C)=O (stereo not drawn)", 5.41),
    ("COc1ccccc1CN(CC(NC(=O)CN1CCN(c2ccccc2)CC1)c1ccc(Cl)c(Cl)c1)C(C)=O (stereo not drawn)", 6.24),
    ("COc1ccccc1CN(CC(Cc1c[nH]c2ccccc12)NC(=O)CCCC(=O)c1ccccc1)C(C)=O (stereo not drawn)", 6.22),
    ("CC(=O)N(Cc1ccccc1)CC(Cc1c[nH]c2ccccc12)NC(=O)CN1CCN(c2ccccc2)CC1 (stereo not drawn)", 5.80),
    ("CCCCN(CC(Cc1c[nH]c2ccccc12)NC(c1ccccc1)(c1ccccc1)c1ccccc1)C(C)=O (stereo not drawn)", 4.98),
    ("COc1ccccc1CN(CC(Cc1cn(C)c2ccccc12)NC(=O)CN1CCC(N2CCCCC2)CC1)C(C)=O (stereo not drawn)", 5.85),
    ("COc1ccccc1CNCC(Cc1c[nH]c2ccccc12)NC(=O)CN1CCC(N2CCCCC2)CC1 (stereo not drawn)", 5.28),
    ("COc1ccccc1CN(C[C@@H](Cc1c[nH]c2ccccc12)NC(=O)CN1CCN(C2CCCCC2)CC1)C(C)=O", 6.07),
    ("COc1ccccc1CN(CC(Cc1c[nH]c2ccccc12)NC(=O)CN1CCN(c2ccccc2)CC1)C(=O)CC(=O)O (stereo not drawn)", 5.21),
    ("COc1ccccc1CN(CC(Cc1c[nH]c2ccccc12)NC(=O)CNCc1ccccn1)C(C)=O (stereo not drawn)", 5.96),
    ("COc1ccccc1CN(CC(Cc1ccccc1)NC(=O)CN1CCN(c2ccccc2)CC1)C(C)=O (stereo not drawn)", 5.52),
]

---

Biological target: NK-1 receptor (Homo sapiens)
Construct: endogenous in cells; host or cells: IM9 cells (human cell line), whole cells
Experiment: NK-1 Receptor Binding Assay (125I-labeled substance P, IM9 cells)
Details: @ 1 μM
The label depends only on NK-1 percent inhibition of binding: Met if it is at least 70 % @, Not met if it is smaller.

# compound, assigned.category
measured = [
    ("CC(=O)N(CC(Cc1c[nH]c2ccccc12)NC(=O)CN1CCN(c2ccccc2)CC1)c1ccccc1 (centres unmarked) [Example 42]", "Not met"),
    ("COc1ccccc1CNCC(Cc1cccc2ccccc12)NC(=O)CN1CCN(c2ccccc2)CC1 (centres unmarked) [Example 135]", "Met"),
    ("CC(C)(C)OC(=O)NCC(=O)N(CC1CCCCC1)CC(Cc1c[nH]c2ccccc12)NC(=O)CN1CCN(c2ccccc2)CC1 (centres unmarked) [Example 154]", "Met"),
    ("COc1ccccc1CN(C[C@H](Cc1c[nH]c2ccccc12)NC(=O)OCc1ccccc1)C(C)=O [Example 93]", "Not met"),
    ("CC(=O)NC(Cc1c[nH]c2ccccc12)CN(Cc1ccccc1)C(=O)CN1CCC(N2CCCCC2)CC1 (centres unmarked) [Example 108]", "Met"),
    ("COc1ccccc1CN(CC(C)(Cc1c[nH]c2ccccc12)NC(=O)CBr)C(=O)OC(C)(C)C (centres unmarked) [Example 134]", "Not met"),
    ("COc1ccccc1CNCC(Cc1c[nH]c2ccccc12)NC(=O)CN1CCN(c2ccccc2)CC1 (centres unmarked) [Example 6]", "Not met"),
    ("COc1ccccc1CNCC(Cc1ccc2ccccc2c1)NC(=O)CN1CCN(c2ccccc2)CC1 (centres unmarked) [Example 136]", "Not met"),
    ("CC(=O)NC(Cc1c[nH]c2ccccc12)CN(C(C)=O)C(C)c1ccccc1 (centres unmarked) [Example 100]", "Met"),
    ("COc1ccccc1CN(CC(Cc1c[nH]c2ccccc12)NC(C)=O)C(=O)CN1CCN(c2ccccc2)CC1 (centres unmarked) [Example 107]", "Met"),
    ("CC(=O)NC(Cc1c[nH]c2ccccc12)CN(C(C)=O)C(C)c1ccccc1 (centres unmarked) [Example 99]", "Not met"),
]

---

Target: NK-1 receptor (Homo sapiens, UniProt P25103)
Construct: endogenous in cells
Sequence (P25103 whole entry): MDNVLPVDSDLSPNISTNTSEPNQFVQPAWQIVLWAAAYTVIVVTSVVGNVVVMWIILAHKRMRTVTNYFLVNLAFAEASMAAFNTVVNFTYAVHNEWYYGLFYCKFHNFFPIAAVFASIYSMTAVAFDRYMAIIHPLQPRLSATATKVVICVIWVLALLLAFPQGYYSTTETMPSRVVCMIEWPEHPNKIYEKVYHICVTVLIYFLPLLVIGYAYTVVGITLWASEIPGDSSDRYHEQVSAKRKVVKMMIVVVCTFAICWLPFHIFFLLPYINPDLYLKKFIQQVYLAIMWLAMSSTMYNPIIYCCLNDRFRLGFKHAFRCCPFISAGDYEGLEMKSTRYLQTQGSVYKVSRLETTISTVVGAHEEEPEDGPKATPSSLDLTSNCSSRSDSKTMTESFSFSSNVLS
Assay: NK-1 Receptor Binding Assay (125I-labeled substance P, IM9 cells)
Conditions: inhibits fifty percent of binding of 125I-substance P to IM9 cells
Note to self: class = bucket of IC50, per bin A = under 10 nM, bin B = from 10 nM up to 80 nM, bin C = 80 nM and over

# compound, assigned.category
data = [
    ("COc1ccccc1CN(CC(CC1CNc2ccccc21)NC(=O)CN1CCN(c2ccccc2)CC1)C(C)=O (mixture of isomers) [Example 144]", "bin B"),
    ("CC(=O)N(Cc1ccccc1Cl)CC(Cc1c[nH]c2ccccc12)NC(=O)CN1CCC(N2CCCCC2)CC1 (racemic) [Example 47]", "bin A"),
    ("COc1ccccc1CN(C=O)CC(Cc1c[nH]c2ccccc12)NC(=O)CN1CCN(c2ccccc2)CC1 (stereo not drawn) [Example 24]", "bin A"),
    ("COc1ccccc1CN(CC(Cc1c[nH]c2ccccc12)NC(=O)CBr)C(C)=O (stereo not drawn) [Example 55]", "bin B"),
    ("COc1ccccc1CN(CC(=O)O)CC(Cc1c[nH]c2ccccc12)NC(=O)CN1CCN(c2ccccc2)CC1 (stereo not drawn) [Example 11]", "bin B"),
    ("CC(=O)NC(Cc1c[nH]c2ccccc12)CN(Cc1ccccc1Cl)C(=O)CN1CCC(N2CCCCC2)CC1 (stereo not drawn) [Example 109]", "bin C"),
    ("COc1ccccc1CN(CC(Cc1c[nH]c2ccccc12)NC(=O)CNCc1ccccn1)C(C)=O (stereo not drawn) [Example 81]", "bin B"),
    ("COc1ccccc1CN(CC(NC(=O)CN1CCN(c2ccccc2)CC1)c1ccccc1)C(C)=O (stereo not drawn) [Example 138]", "bin C"),
    ("COc1ccccc1CN(CC(Cc1c[nH]c2ccccc12)NC(=O)CN1CCN(c2cccc(C(F)(F)F)c2)CC1)C(C)=O (stereo not drawn) [Example 70]", "bin B"),
    ("O=C(CN1CCN(c2ccccc2)CC1)NC(CNC(=O)c1ccccc1)Cc1c[nH]c2ccccc12 (stereo not drawn) [Example 152]", "bin C"),
    ("COc1ccccc1CNCC(Cc1c[nH]c2ccccc12)NC(C)=O (stereo not drawn) [Example 105]", "bin C"),
    ("COc1ccccc1CNCC(Cc1c[nH]c2ccc(Br)cc12)NC(=O)CN1CCN(c2ccccc2)CC1 (stereo not drawn) [Example 111]", "bin C"),
    ("COc1ccccc1CN(CC(Cc1cn(C)c2ccccc12)NC(=O)CBr)C(C)=O (stereo not drawn) [Example 162]", "bin C"),
    ("COC(=O)CN(Cc1ccccc1OC)CC(Cc1c[nH]c2ccccc12)NC(=O)CN1CCN(c2ccccc2)CC1 (stereo not drawn) [Example 10]", "bin B"),
    ("COc1ccccc1CN(CC(Cc1c[nH]c2cc(C)ccc12)NC(=O)CN1CCC(N2CCCCC2)CC1)C(C)=O (stereo not drawn) [Example 127]", "bin A"),
    ("COc1ccccc1CN(CC(Cc1c[nH]c2ccccc12)NC(=O)CN1CCCC1)C(C)=O (stereo not drawn) [Example 59]", "bin A"),
    ("O=C(CN1CCN(c2ccccc2)CC1)NC(CNCc1ccccc1C(F)(F)F)Cc1c[nH]c2ccccc12 (stereo not drawn) [Example 3]", "bin B"),
    ("COc1ccccc1CN(CC(Cc1c[nH]c2cc(F)ccc12)NC(=O)CN1CCC(N2CCCCC2)CC1)C(C)=O (stereo not drawn) [Example 131a]", "bin A"),
    ("CN(CC(Cc1c[nH]c2ccccc12)NC(=O)CN1CCN(C2CCCCC2)CC1)C(=O)c1ccccc1 (stereo not drawn) [Example 158]", "bin C"),
    ("COc1cccc(CNCC(Cc2c[nH]c3ccccc23)NC(=O)CN2CCN(c3ccccc3)CC2)c1 (stereo not drawn) [Example 7]", "bin C"),
    ("CC(=O)N(CC1CCCCC1)CC(Cc1c[nH]c2ccccc12)NC(=O)CN1CCN(c2ccccc2)CC1 (stereo not drawn) [Example 41]", "bin A"),
    ("COc1ccccc1CN(CC(Cc1c[nH]c2ccccc12)NC(=O)CCC(=O)c1ccccc1)C(C)=O (racemic) [Example 95]", "bin A"),
    ("COc1ccccc1CN(CC(Cc1c[nH]c2ccccc12)NC(=O)CN1CCCCCC1)C(C)=O (stereo not drawn) [Example 61]", "bin A"),
    ("COc1ccccc1CN(CC(Cc1c[nH]c2ccc(Br)cc12)NC(=O)CN1CCN(c2ccccc2)CC1)C(C)=O (stereo not drawn) [Example 116]", "bin B"),
    ("COc1ccc2[nH]cc(CC(CNCc3ccccc3OC)NC(=O)CN3CCC(N4CCCCC4)CC3)c2c1 (stereo not drawn) [Example 121]", "bin C"),
    ("COc1ccccc1CN(CC(Cc1ccccc1)NC(=O)CN1CCC(N2CCCCC2)CC1)C(C)=O (stereo not drawn) [Example 148]", "bin B"),
    ("COc1ccccc1CN(CC(Cc1c[nH]c2ccccc12)NC(=O)CN1CCN(C2CCCCC2)CC1)C(C)=O (stereo not drawn) [Example 74]", "bin A"),
    ("CC(=O)N(Cc1ccccc1Cl)CC(Cc1c[nH]c2ccccc12)NC(=O)CN1CCN(c2ccccc2)CC1 (stereo not drawn) [Example 13]", "bin A"),
]
